# system.tested: JAK3 (catalytic domain, His-tag) (Homo sapiens)
# Construct: All four purified enzymes contain only the catalytic domain; His (N); purchased Carna Biosciences, Inc; host or cells: baculovirus expression system
# Sequence (P52333 822-1111 limits assumed): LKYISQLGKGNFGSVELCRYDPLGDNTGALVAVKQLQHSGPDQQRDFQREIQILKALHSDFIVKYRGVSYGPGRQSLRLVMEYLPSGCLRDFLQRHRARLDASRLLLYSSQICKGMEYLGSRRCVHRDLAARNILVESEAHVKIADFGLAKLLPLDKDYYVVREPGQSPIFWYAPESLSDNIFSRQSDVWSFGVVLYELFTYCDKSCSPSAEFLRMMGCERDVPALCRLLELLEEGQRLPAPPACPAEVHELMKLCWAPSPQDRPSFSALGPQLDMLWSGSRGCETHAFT
# experiment.summary: JAK kinase assay (HTRF, phosphorylation of TK substrate-biotin), JAK3
# Format: biochemical
# condition.set: ATP at Km (2 μM); read-out: JAK3 kinase inhibitory activity (EC50 indicator)
property: EC50

Request: Would you kindly share the measured EC50 for `O=C(c1ccc(C(F)(F)F)cc1)N1[C@@H]2CC[C@H]1CN(c1ncnc3[nH]ccc13)C2` ?
Response: > 500 nM

Request: Another compound to look at: `O=C(c1cc2cc(F)cc(F)c2[nH]1)N1CCN(c2ncnc3[nH]ccc23)CC12CC2`
Response: < 100 nM

Request: Could you do the same for `CC(=O)NCC(=O)N1[C@@H]2CC[C@@H]1CN(c1ncnc3[nH]ccc13)C2` , please?
Response: > 500 nM

Request: Next compound up: `N#Cc1cccc(CC(=O)N2CCN(c3ncnc4[nH]ccc34)CC23CC3)c1`
Response: 100 to 500 nM

* * *

# system.tested: JAK2 (catalytic domain, His-tag) (Homo sapiens)
# Construct: All four purified enzymes contain only the catalytic domain; His (N); purchased Carna Biosciences, Inc; host or cells: baculovirus expression system
# Sequence (O60674 849-1124 limits assumed): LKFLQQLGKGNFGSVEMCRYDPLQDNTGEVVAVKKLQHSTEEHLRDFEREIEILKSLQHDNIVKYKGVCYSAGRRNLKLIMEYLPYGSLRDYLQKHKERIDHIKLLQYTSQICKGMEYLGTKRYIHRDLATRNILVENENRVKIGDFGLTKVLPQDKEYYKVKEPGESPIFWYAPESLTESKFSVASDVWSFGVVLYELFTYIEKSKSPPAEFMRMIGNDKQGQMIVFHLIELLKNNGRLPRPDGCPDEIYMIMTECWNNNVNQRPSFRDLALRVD
# experiment.summary: JAK kinase assay (HTRF, phosphorylation of TK substrate-biotin), JAK2
# Type: biochemical
# condition.set: ATP at Km (4 μM); read-out: JAK2 kinase inhibitory activity (EC50 indicator)
Kindly supply the reported EC50 values for the records listed here.

Request: Please report the recorded EC50 for CC1CN(C(=O)CCC#N)C2(CC2)CN1c1ncnc2[nH]ccc12 (centres unmarked) .
Response: < 100 nM

Request: Continue with `O=C([C@@H]1CCCc2ccccc21)N1C2CCC1CN(c1ncnc3[nH]ccc13)C2`
Response: 100 to 500 nM

Request: Next: `N#Cc1ccc(CC(=O)N2[C@@H]3CC[C@@H]2CN(c2ncnc4[nH]ccc24)C3)cc1`
Response: 100 to 500 nM

Request: Note, next up: `N#CCc1ccc(C(=O)N2CCN(c3ncnc4[nH]ccc34)CC23CC3)cc1`
Response: < 100 nM

Request: Similarly, `O=C(c1ccc(CO)cc1)N1CCN(c2ncnc3[nH]ccc23)CC12CC2` ?
Response: < 100 nM

Request: Another molecule: `S=C(NCc1ccccc1)N1[C@@H]2CC[C@H]1CN(c1ncnc3[nH]ccc13)C2`
Response: < 100 nM

Request: Then `O=C(OCc1ccccc1)N1[C@@H]2CC[C@H]1CN(c1ncnc3[nH]ccc13)C2` ?
Response: < 100 nM

Request: Could you do the same for `O=C(Cc1cccs1)N1[C@@H]2CC[C@H]1CN(c1ncnc3[nH]ccc13)C2` , please?
Response: < 100 nM

* * *

# system.tested: JAK2 (catalytic domain, His-tag) (Homo sapiens)
# Construct: All four purified enzymes contain only the catalytic domain; His (N); purchased Carna Biosciences, Inc; host or cells: baculovirus expression system
# experiment.summary: JAK kinase assay (HTRF, phosphorylation of TK substrate-biotin), JAK2
# Assay type: biochemical
# condition.set: ATP at Km (4 μM); read-out: JAK2 kinase inhibitory activity (EC50 indicator)
property: EC50

Request: Requested field: EC50. Item: Cc1cnc(C(=O)N2[C@@H]3CC[C@H]2CN(c2ncnc4[nH]ccc24)C3)cn1 [Example 74]
Response: 100 to 500 nM

Request: Entry to check: O=C(c1ccc(S(=O)(=O)NCc2cccs2)cc1)N1CCN(c2ncnc3[nH]ccc23)CC12CC2 [Example 204]
Response: < 100 nM

Request: Quick one: CCC(=O)N1[C@@H]2CC[C@H]1CN(c1ncnc3[nH]ccc13)C2 [Example 30]
Response: 100 to 500 nM

Request: Also O=C(c1ccc(=O)[nH]c1)N1CCN(c2ncnc3[nH]ccc23)CC12CC2 [Example 56] , if possible.
Response: < 100 nM

The measured values listed here are drawn from patent US9346809B2.
